assay-target: human recombinant dopamine D3 receptor (Homo sapiens (Human), UniProt P35462)
Sequence (P35462 whole entry): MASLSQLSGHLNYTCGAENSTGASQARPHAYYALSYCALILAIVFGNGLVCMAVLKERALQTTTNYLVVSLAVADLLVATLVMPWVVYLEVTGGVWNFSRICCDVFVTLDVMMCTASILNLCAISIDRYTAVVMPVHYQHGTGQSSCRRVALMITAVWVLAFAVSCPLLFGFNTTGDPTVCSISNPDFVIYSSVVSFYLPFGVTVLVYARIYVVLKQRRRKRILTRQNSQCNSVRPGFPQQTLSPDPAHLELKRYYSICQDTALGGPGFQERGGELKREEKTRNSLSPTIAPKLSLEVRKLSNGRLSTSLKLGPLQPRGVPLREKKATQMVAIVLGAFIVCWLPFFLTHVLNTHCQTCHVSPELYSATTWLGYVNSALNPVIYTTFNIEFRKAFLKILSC
method-description: Test of binding inhibition for the human dopamine D3 receptor ([3H]-Metylspiperone SPA binding)
test-context: [3H]-Metylspiperone 2 nM, Jump-In HEK cell membranes, read-out: hD3_Ki
Procedure: Cell membranes: Jump-In HEK cell membranes expressing human recombinant dopamine D3 receptor (4 μg/well) Non-specific ligand: (final concentration) 10 μM Butaclamol [(+)-Butaclamol Hydrochioride, D033, Sigma] […] Jump-In HEK Cell membranes (final reaction amount: 4 μg/well), SPA beads (final reaction amount: 0.2 mg/well) and Tris-HCl buffer were mixed and the mixed solution was left still for more than 60 min at 4° C. […] The Ki values were calculated from dose-response curves. […]
pKi: −log10 of the molar value.
experimental-endpoint: pKi

Record excerpt, results attached:
Cc1ncc(CC(=O)N[C@H]2CC[C@H](CCN3CCc4nc(OCC(C)(F)F)sc4CC3)CC2)o1 [II-029]
9.92
Cn1cc2c(C(=O)N[C@H]3CC[C@H](CCN4CCc5ccc(OC6CC(F)(F)C6)nc5CC4)CC3)cccc2n1 [III-155]
9.60

I = Cc1cc(CC(=O)N[C@H]2CC[C@](F)(CCN3CCc4nc(OCC(F)(F)F)sc4CC3)CC2)no1 [III-255]
II = Cn1cc2c(C(=O)N[C@H]3CC[C@H](CCN4CCc5ccc(OCC(F)F)nc5CC4)CC3)cccc2n1 [II-057]
[ask] Between I and II , whose recorded pKi is greater? Let me know the label of the one you choose.
[reply] II
(II: 10.85, I: 9.17)

1 = Cc1ncc(CC(=O)N[C@H]2CC[C@H](CCN3CCc4ccc(N5CC(F)(F)C5)nc4CC3)CC2)s1 [II-066]
2 = O=C(N[C@H]1CC[C@H](CCN2CCc3nc(-c4ccccc4)sc3C2)CC1)c1cccc2ncccc12 [Compound I-018]
[ask] // task: argmin of pKi over [ 1 , 2 ] Pick one and reply with its label.
[reply] 2

----------
assay-target: human recombinant dopamine D2 receptor (Homo sapiens (Human), UniProt P14416)
Sequence (P14416 whole entry): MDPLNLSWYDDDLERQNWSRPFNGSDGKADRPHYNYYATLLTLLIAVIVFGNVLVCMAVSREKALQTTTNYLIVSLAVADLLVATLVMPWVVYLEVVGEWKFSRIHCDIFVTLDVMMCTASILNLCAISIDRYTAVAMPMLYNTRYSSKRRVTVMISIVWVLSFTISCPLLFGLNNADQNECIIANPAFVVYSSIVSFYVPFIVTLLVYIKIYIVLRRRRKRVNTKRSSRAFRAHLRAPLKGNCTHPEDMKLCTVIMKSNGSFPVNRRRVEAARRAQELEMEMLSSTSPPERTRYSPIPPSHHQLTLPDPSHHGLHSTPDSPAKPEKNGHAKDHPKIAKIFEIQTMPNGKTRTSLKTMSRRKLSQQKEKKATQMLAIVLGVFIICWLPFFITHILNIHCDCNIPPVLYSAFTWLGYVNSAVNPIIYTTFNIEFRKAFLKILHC
method-description: Test of binding inhibition for the human dopamine D2 receptor ([3H]-Metylspiperone SPA binding)
test-context: [3H]-Metylspiperone 1.2 nM, Jump-In HEK cell membranes, read-out: hD2_Ki
experimental-endpoint: Ki (µM)

Known results for compounds:
Cc1nc(CC(=O)N[C@H]2CC[C@H](CCN3CCc4nc(OCC(F)(F)F)sc4CC3)OC2)no1
0.46
CC(F)(F)COc1nc2c(s1)CCN(CC[C@H]1CC[C@H](NS(=O)(=O)c3cccc(F)c3)CC1)C2
0.079
Cc1ncc(CC(=O)N[C@H]2CC[C@](F)(CCN3CCc4nc(OCC(C)(F)F)sc4CC3)CC2)s1
0.82

a = Cc1nnc(CC(=O)N[C@H]2CC[C@](F)(CCN3CCc4ccc(OCC(F)(F)F)nc4CC3)CC2)o1
b = Cn1cc(CC(=O)N[C@H]2CC[C@H](CCN3CCc4sc(OC5CCC(F)(F)C5)nc4C3)CC2)cn1 (stereo partly drawn)
[ask] Between a and b , whose measured Ki reads higher? Could you answer with the label of the item you picked?
[reply] b

a = Cn1cc(CC(=O)N[C@H]2CC[C@](F)(CCN3CCc4nc(OCC(F)(F)F)sc4CC3)CC2)cn1
b = Cc1ncc(CC(=O)N[C@H]2CC[C@H](CCN3CCc4nc(OCC(F)(F)F)sc4CC3)CC2)s1
c = Cn1c(C#N)cc2c1CCN(CC[C@H]1CC[C@H](NC(=O)c3cccc4ncccc34)CC1)C2
[ask] Give the ascending ranking of the items by reported Ki. Please list the labels according to the requested order.
[reply] a, b, c
(a: 0.48 µM, b: 0.73 µM, c: 1.1 µM)

A = Cn1cc(CC(=O)N[C@H]2CC[C@](F)(CCN3CCc4ccc(OCC(F)(F)F)nc4CC3)CC2)cn1
B = CCN1Cc2c(C(=O)N[C@H]3CC[C@H](CCN4CCc5sc(CCC(F)(F)F)nc5C4)CC3)cccc2C1=O
C = Cn1cc(CC(=O)N[C@H]2CC[C@H](CCN3CCc4sc(OCC(C)(F)F)nc4C3)CC2)c(F)n1
[ask] Put these in order: smallest Ki first, largest last. # the answer lists labels in the order requested
[reply] B, A, C

----------
assay-target: human recombinant dopamine D2 receptor (Homo sapiens (Human))
method-description: Test of binding inhibition for the human dopamine D2 receptor ([3H]-Metylspiperone SPA binding)
test-context: [3H]-Metylspiperone 1.2 nM, Jump-In HEK cell membranes, read-out: hD2_Ki
pKi: −log10 of the molar value.
experimental-endpoint: pKi

Some entries whose results are on file:
Cc1nnc(CC(=O)N[C@H]2CC[C@H](CCN3CCc4nc(OCC(F)F)sc4CC3)CC2)o1
6.24
Cn1cc2c(C(=O)N[C@H]3CC[C@H](CCN4CCc5sc(OCC(C)(F)F)nc5C4)CC3)cccc2n1
6.77
O=C(NCCCCN1CCc2ccc(OCC(F)(F)F)nc2CC1)c1cc2ccccc2[nH]1
5.96
Cn1cc(CC(=O)N[C@H]2CC[C@H](CCN3CCc4sc(OCC(F)F)nc4C3)CC2)cn1
5.85
Cc1cnc(CC(=O)N[C@H]2CC[C@H](CCN3CCc4ccc(OCC(F)(F)F)nc4CC3)OC2)o1
6.34

1 = Cn1cc2c(C(=O)N[C@H]3CC[C@H](CCN4CCc5nc(OCC(F)(F)F)sc5CC4)CC3)cccc2n1
2 = Cc1ncc(CC(=O)N[C@H]2CC[C@H](CCN3CCc4cc(C)c(OCC(F)F)nc4CC3)OC2)s1
[ask] Please indicate which entry, 1 or 2 , has the lower recorded pKi value. Pick one; state its label.
[reply] 1
(1: 5.92, 2: 6.32)

----------
assay-target: human recombinant dopamine D3 receptor (Homo sapiens (Human), UniProt P35462)
method-description: Test of binding inhibition for the human dopamine D3 receptor ([3H]-Metylspiperone SPA binding)
test-context: [3H]-Metylspiperone 2 nM, Jump-In HEK cell membranes, read-out: hD3_Ki
experimental-endpoint: Ki (nM)

CCn1c(C(=O)N[C@H]2CC[C@H](CCN3CCc4ccc(OCC(F)(F)F)nc4CC3)CC2)cccc1=O [II-081]
0.048
Cc1cnc(CC(=O)N[C@H]2CC[C@H](CCN3CCc4sc(CCC(F)(F)F)nc4C3)CC2)o1 [III-698]
0.52

I = Cc1ncc(/C=C/C(=O)N[C@H]2CC[C@H](CCN3CCc4nc(OCC(F)(F)F)sc4CC3)CC2)cn1 [II-048]
II = CC(C)Oc1ccc2c(n1)CCN(CC[C@H]1CC[C@H](NC(=O)c3cccc4nn(C)cc34)CC1)CC2 [II-050]
III = Cn1cc2c(C(=O)N[C@H]3CC[C@H](CCN4CCc5nc(O[C@H]6C[C@H](F)C6)sc5CC4)CC3)cccc2n1 [III-158]
IV = Cc1ncc(CC(=O)N[C@H]2CC[C@H](CCN3CCc4sc(CCC(F)(F)F)nc4C3)CC2)o1 [III-696]
[ask] Would you mind ranking these molecules by ascending Ki? # list labels per requested ordering
[reply] IV, III, II, I

----------
assay-target: human recombinant dopamine D3 receptor (Homo sapiens (Human))
method-description: Test of binding inhibition for the human dopamine D3 receptor ([3H]-Metylspiperone SPA binding)
test-context: [3H]-Metylspiperone 2 nM, Jump-In HEK cell membranes, read-out: hD3_Ki
experimental-endpoint: Ki (nM)

O=C(N[C@H]1C[C@@H]2[C@@H](CCN3CCc4sc(OCC(F)F)nc4C3)[C@@H]2C1)c1cccc2ncccc12
0.91

a = Cc1ncccc1C(=O)N[C@H]1CC[C@H](CCN2CCc3nc(OCC(F)(F)F)sc3CC2)OC1
b = Cc1nc(CC(=O)N[C@H]2CC[C@H](CCN3CCc4sc(N5CC(F)(F)C5)nc4C3)CC2)no1
c = Cc1nnc(CC(=O)N[C@H]2CC[C@](F)(CCN3CCc4nc(OCC(F)(F)F)sc4CC3)CC2)s1
[ask] Sort the 3 compounds by Ki; largest first, smallest last. Write out the labels following the order that was asked for.
[reply] b, a, c
(b: 0.9 nM, a: 0.56 nM, c: 0.36 nM)

----------
assay-target: human recombinant dopamine D3 receptor (Homo sapiens (Human), UniProt P35462)
method-description: Test of binding inhibition for the human dopamine D3 receptor ([3H]-Metylspiperone SPA binding)
test-context: [3H]-Metylspiperone 2 nM, Jump-In HEK cell membranes, read-out: hD3_Ki
pKi: −log10 of the molar value.
experimental-endpoint: pKi

Field: example entries. Status: answers known.
Cc1nc(/C=C/C(=O)N[C@H]2CC[C@H](CCN3CCc4sc(N5CC(F)(F)C5)nc4C3)CC2)cs1
10.29
Cc1ncccc1C(=O)N[C@H]1CC[C@](F)(CCN2CCc3nc(OCC(F)(F)F)sc3CC2)CC1
9.37
Cn1cc(/C=C/C(=O)N[C@H]2CC[C@H](CCN3CCc4nc(OCC(F)(F)F)sc4CC3)CC2)cn1
10.24

a = Cc1ncc(CC(=O)N[C@H]2CC[C@H](CCN3CCc4ccc(OCC(F)F)nc4CC3)CC2)s1
b = Cn1cc2c(C(=O)N[C@H]3CC[C@H](CCN4CCc5sc(CCC(C)(F)F)nc5C4)CC3)cccc2n1
c = O=C(N[C@H]1CO[C@H](CCN2CCc3sc(OCC(F)(F)F)nc3C2)OC1)OCc1ccccc1
d = O=C(N[C@H]1CC[C@H](CCN2CCc3cn(Cc4ccccc4)nc3C2)CC1)c1cccc2ncccc12
e = Cn1cc2c(C(=O)N[C@H]3CC[C@H](C(O)CN4CCc5ccc(OCC(F)(F)F)nc5CC4)CC3)cccc2n1 (stereo partly drawn)
[ask] // ranking: key=pKi, reverse=True Respond with the label ranking, as requested.
[reply] a, b, e, d, c
(a: 10.07, b: 9.43, e: 8.80, d: 8.33, c: 8.02)

P = Cc1ncccc1C(=O)N[C@H]1CC[C@H](CCN2CCc3sc(OCC(C)(F)F)nc3C2)CC1
Q = CC1c2nc(OCC(F)F)sc2CCN1CC[C@H]1CC[C@H](NC(=O)c2cccc3ncccc23)CC1 (stereo partly drawn)
[ask] Of P versus Q , which is the one with smaller reported pKi? Reply with the label of the item you choose.
[reply] Q
(Q: 8.09, P: 9.40)

Reference source for all entries: patent US10870660B2
